STUDY TARGET: UniProt P03431
PROTOCOL NOTES: Influenza virus RdRp replicon reporter (Luc) assay in transduced 293T cells
Type: cell-based, Influenza A/PR/8/34 (H1N1)
TEST SETTINGS: T-705 0 μM; antimetabolite 0.08 μM
PARAMETER: Replicon inhibiting percentage (%)
Report the value in % with no unit label.

Reference set (4 entries):
CN(Cc1cnc2nc(N)nc(N)c2n1)c1ccc(C(=O)N[C@@H](CCC(=O)O)C(=O)O)cc1 [Methotrexate, methotrexate] ... 1.3
Nc1nc2nc[nH]c2c(=S)[nH]1 [Thioguanine] ... −4.8
Sc1ncnc2nc[nH]c12 [6-Mercaptopurine, 6-mercaptopurine] ... −1.1
C#CCC(Cc1cnc2nc(N)nc(N)c2n1)c1ccc(C(=O)N[C@@H](CCC(=O)O)C(=O)O)cc1 (some centres unmarked) [Pralatrexate, pralatrexate] ... 24

Next, consider the following molecule.
Give its Replicon inhibiting percentage value. Item: Cn1cnc([N+](=O)[O-])c1Sc1ncnc2nc[nH]c12 [Azathioprine, azathioprine] 3.1
